Heads up, these compounds all have IC50 values measured for human endothelial NOS (heNOS) (Homo sapiens).
QUANTITY_NAME: IC50 (µM)

1. Nc1cccc(CCCCNCc2cccc(OCc3ccc4ccc(N)nc4c3)c2)n1 [Compound 8]	126
2. Nc1cccc(CNCCOc2cccc(OCc3ccc4ccc(N)nc4c3)c2)n1 [Compound 9]	493
3. Nc1cccc(CNCc2cccc(OCc3ccc4ccc(N)nc4c3)c2)n1 [Compound 5]	307
4. Nc1ccc2ccc(COc3cccc(CNCc4ccccn4)c3)cc2n1 [Compound 4]	475

###

Reported IC50 is given for each of the following molecules.
TEST_SYSTEM: bNOS (I218V) (Bacillus subtilis, UniProt O34453, I218V)
Sequence (O34453 other isoform, or with tags, fused parts or gaps I218V): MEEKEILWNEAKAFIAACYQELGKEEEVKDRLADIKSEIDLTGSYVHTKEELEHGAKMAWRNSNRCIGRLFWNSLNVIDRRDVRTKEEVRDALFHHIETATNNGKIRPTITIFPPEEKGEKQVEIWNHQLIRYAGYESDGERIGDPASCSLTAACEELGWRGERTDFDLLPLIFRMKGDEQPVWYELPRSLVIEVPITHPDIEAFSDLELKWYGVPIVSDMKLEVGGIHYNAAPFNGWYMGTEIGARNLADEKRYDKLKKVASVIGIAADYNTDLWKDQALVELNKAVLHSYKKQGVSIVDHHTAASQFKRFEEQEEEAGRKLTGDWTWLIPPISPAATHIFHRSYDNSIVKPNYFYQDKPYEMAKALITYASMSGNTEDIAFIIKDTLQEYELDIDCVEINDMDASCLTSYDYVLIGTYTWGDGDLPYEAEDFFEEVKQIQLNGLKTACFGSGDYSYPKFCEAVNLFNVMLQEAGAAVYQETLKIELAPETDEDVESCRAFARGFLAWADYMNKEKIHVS
TEST_SUMMARY: IC50 determination with bBidomain construct, bNOS I218V
Method: Enzyme activity for bsNOS and bsNOS I218V was measured using the bBidomain constructs, as described previously,^4,14 with some minor alterations. Reactions with bsNOS and bsNOS I218V were run for 8 min, whereas those with hiNOS and heNOS were run for 4 min, as this allowed for adequate signal before complete substrate depletion. hiNOS and heNOS reactions also had calmodulin added at 10× the protein concentration. […] IC50 values were calculated as previously described.^9
QUANTITY_NAME: IC50 (µM)

1) Nc1cccc(CNCc2cccc(OCc3ccc4ccc(N)nc4c3)c2)n1	114
2) Nc1ccc2ccc(COc3cccc(CNCc4ccccn4)c3)cc2n1	86
3) Nc1ccc2ccc(COc3cccc(CNCCc4ccccn4)c3)cc2n1	63.8
4) Nc1cccc(CCc2cccc(OCc3ccc4ccc(N)nc4c3)c2)n1	31.2
